# tgt: UniProt:O60502
# Sequence (O60502 1-916): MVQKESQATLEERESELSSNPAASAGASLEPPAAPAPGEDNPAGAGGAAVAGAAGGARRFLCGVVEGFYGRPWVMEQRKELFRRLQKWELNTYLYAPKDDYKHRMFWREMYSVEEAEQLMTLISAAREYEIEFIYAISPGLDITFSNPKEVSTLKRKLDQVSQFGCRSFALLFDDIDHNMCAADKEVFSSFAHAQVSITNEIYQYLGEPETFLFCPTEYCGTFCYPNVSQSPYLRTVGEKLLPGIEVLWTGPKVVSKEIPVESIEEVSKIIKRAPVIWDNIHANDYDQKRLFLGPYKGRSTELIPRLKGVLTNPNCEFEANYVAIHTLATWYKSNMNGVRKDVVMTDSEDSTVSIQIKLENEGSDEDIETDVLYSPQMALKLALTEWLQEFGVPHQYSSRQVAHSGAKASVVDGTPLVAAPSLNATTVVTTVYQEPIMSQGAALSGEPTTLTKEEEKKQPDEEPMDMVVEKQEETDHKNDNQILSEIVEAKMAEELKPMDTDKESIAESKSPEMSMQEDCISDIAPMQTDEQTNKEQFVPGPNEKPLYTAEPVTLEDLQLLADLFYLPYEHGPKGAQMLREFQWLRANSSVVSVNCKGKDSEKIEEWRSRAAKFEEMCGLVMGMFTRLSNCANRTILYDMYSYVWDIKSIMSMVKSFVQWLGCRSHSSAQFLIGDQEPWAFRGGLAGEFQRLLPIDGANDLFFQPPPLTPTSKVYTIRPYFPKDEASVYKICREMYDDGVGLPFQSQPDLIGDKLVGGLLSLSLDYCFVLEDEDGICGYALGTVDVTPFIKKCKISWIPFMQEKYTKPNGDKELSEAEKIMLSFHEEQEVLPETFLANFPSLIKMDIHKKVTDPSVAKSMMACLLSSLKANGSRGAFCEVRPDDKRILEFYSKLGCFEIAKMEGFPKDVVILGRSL
metric.name: IC50

{"molecule": "CS(=O)(=O)c1cnc(-c2ccc(CN3CCCC3c3ccc4c(c3)OCCO4)cc2)nc1 (racemic)", "tgt": "UniProt:O60502", "reported.result": "50 to 200 nM"}
{"molecule": "c1cnc(-c2ccc(CN3CCCC3c3ccc4c(c3)OCCO4)cc2)nc1 (racemic)", "tgt": "UniProt:O60502", "reported.result": "50 to 200 nM"}
{"molecule": "c1ccc(-c2ccc(CN3CCCC3c3ccc4c(c3)OCCO4)cc2)nc1 (single isomer, unassigned)", "tgt": "UniProt:O60502", "reported.result": "50 to 200 nM"}
{"molecule": "CS(=O)(=O)c1ccc(-c2ccc(CN3CCCC3c3ccc4c(c3)OCCO4)nc2)cc1 (racemic)", "tgt": "UniProt:O60502", "reported.result": "200 to 1000 nM"}
{"molecule": "c1ncn(-c2ccc(CN3CCCC3c3ccc4c(c3)OCCO4)cc2)n1 (single isomer, unassigned)", "tgt": "UniProt:O60502", "reported.result": "50 to 200 nM"}
{"molecule": "Cn1cc(-c2ccc(CN3CCCC3c3ccc4c(c3)OCCO4)cn2)cn1 (single isomer, unassigned) [Example 7]", "tgt": "UniProt:O60502", "reported.result": "50 to 200 nM"}
{"molecule": "Cn1cc(-c2ccc(CN3CCCC3c3ccc4c(c3)OCCO4)cc2)cn1 (racemic) [Example 4]", "tgt": "UniProt:O60502", "reported.result": "50 to 200 nM"}
{"molecule": "Cc1noc(C)c1-c1ccc(CN2CCCC2c2ccc3c(c2)OCCO3)cc1 (racemic)", "tgt": "UniProt:O60502", "reported.result": "1000 to 10000 nM"}
{"molecule": "COc1ncc(-c2ccc(CN3CCCC3c3ccc4c(c3)OCCO4)cc2)cn1 (racemic)", "tgt": "UniProt:O60502", "reported.result": "< 50 nM"}
{"molecule": "O=C1CCCCN1c1ccc(CN2CCCC2c2ccc3c(c2)OCCO3)cc1 (racemic)", "tgt": "UniProt:O60502", "reported.result": "200 to 1000 nM"}
{"molecule": "N#Cc1ccc(Oc2ccc(CN3CCCC3c3ccc4c(c3)OCCO4)cc2)cc1 (racemic)", "tgt": "UniProt:O60502", "reported.result": "200 to 1000 nM"}
{"molecule": "CS(=O)(=O)c1cccc(-c2ccc(CN3CCCC3c3ccc4c(c3)OCCO4)cc2)c1 (racemic)", "tgt": "UniProt:O60502", "reported.result": "200 to 1000 nM"}
{"molecule": "CS(=O)(=O)N1CCN(c2ccc(CN3CCCC3c3ccc4c(c3)OCCO4)cc2)CC1 (single isomer, unassigned)", "tgt": "UniProt:O60502", "reported.result": "1000 to 10000 nM"}
{"molecule": "Cn1cc(-c2ccc(CN3CCCC3c3ccc4c(c3)OCC4)cn2)cn1 (racemic)", "tgt": "UniProt:O60502", "reported.result": "50 to 200 nM"}
{"molecule": "c1csc(-c2ccc(CN3CCCC3c3ccc4c(c3)OCCO4)cc2)n1 (racemic)", "tgt": "UniProt:O60502", "reported.result": "50 to 200 nM"}
{"molecule": "Cn1cc(-c2ccc(CN3CCCC3c3ccc4c(c3)OCCO4)cc2)cn1 (single isomer, unassigned) [Example 6]", "tgt": "UniProt:O60502", "reported.result": "< 50 nM"}

Values from patent US12016852B2
